experiment: gradient 5% acetonitrile 3 min, to 50% in 2 min, to 85% in 15 min, held 3 min, 100 µL/min; conditions: column: Zorbax Extend-C18 2.1 x 50 mm; eluents: water / acetonitrile, 0.1% formic acid
Classify as follows. Reported RP-LC retention time greater than or equal to 800 s: MET. Reported RP-LC retention time below: NOT MET.

{"compound": "CN1CCC[C@@H]1Cc1c[nH]c2ccc(CCS(=O)(=O)c3ccccc3)cc12", "answerLabel": "NOT MET"}
{"compound": "O=C(NC1CCN(Cc2ccccc2)CC1)C1CCCN(C(=O)c2cccc(Cl)c2)C1 (stereo not drawn)", "answerLabel": "NOT MET"}
{"compound": "COC1=C(OC)C(=O)c2ccccc2C1=O", "answerLabel": "MET"}
{"compound": "COc1ccc(-c2csc(NC(=O)c3cccc([N+](=O)[O-])c3C(=O)O)n2)cc1", "answerLabel": "MET"}
{"compound": "COc1ccc(-c2noc(Cn3ccn4nc(-c5ccc(C)cc5)cc4c3=O)n2)cc1OC", "answerLabel": "MET"}
{"compound": "O=C(NCC1CCCO1)NC1CCN(c2nc3cccnc3n(Cc3ccccc3)c2=O)CC1 (stereo not drawn)", "answerLabel": "MET"}
{"compound": "Cc1cccc(-c2nnc(-c3cc(S(=O)(=O)N(C)C)ccc3F)o2)c1", "answerLabel": "MET"}
{"compound": "COc1ccc2c(c1)C1CC(C)(NC(=O)C1C(=O)c1ccccc1)O2 (stereo not drawn)", "answerLabel": "NOT MET"}
{"compound": "CC1Oc2ccccc2N(Cc2nc(-c3ccccc3)no2)C1=O (stereo not drawn)", "answerLabel": "MET"}
{"compound": "Cc1cccc2nc(-c3ccccc3)c(Nc3ccc4c(c3)OCCO4)n12", "answerLabel": "NOT MET"}
{"compound": "COc1cccc(C(=O)N2CCC3(C2)C(=O)N(C)c2ccccc23)c1OC (stereo not drawn)", "answerLabel": "NOT MET"}
{"compound": "Cn1cnc(S(=O)(=O)NCCc2noc(-c3ccccc3)n2)c1", "answerLabel": "NOT MET"}
{"compound": "CCc1noc(-c2nc(-c3ccccc3F)no2)n1", "answerLabel": "MET"}

----------
test: gradient 5% acetonitrile 3 min, to 50% in 2 min, to 85% in 15 min, held 3 min, 100 µL/min; details: column: Zorbax Extend-C18 2.1 x 50 mm; eluents: water / acetonitrile, 0.1% formic acid
Classify as follows. Reported RP-LC retention time greater than or equal to 800 s: YES. Reported RP-LC retention time below: NO.

{"compound": "O=C(COc1ccc2c(-c3ccccc3)cc(=O)oc2c1)N1CCC2(O)CCCCC2C1 (configuration not stated)", "answerLabel": "YES"}
{"compound": "O=C(c1ccncc1)N1CCCn2nc(-c3cccs3)cc2C1", "answerLabel": "NO"}
{"compound": "CC(C)n1c(=O)c2ccccc2n(Cc2nc(-c3ccc(F)cc3)no2)c1=O", "answerLabel": "YES"}
{"compound": "O=C(NC1CCCC1)c1ccc(Cn2nc(N3CCN(c4ccc(F)cc4)CC3)ccc2=O)o1", "answerLabel": "YES"}
{"compound": "Cc1cc(C)cc(Oc2nccn3c(=O)n(CC(=O)Nc4cc(C)ccc4C)nc23)c1", "answerLabel": "YES"}
{"compound": "O=C(Cn1ccnc1-c1ccnc(N2CCOCC2)c1)N1CCN(c2ccccc2)CC1", "answerLabel": "NO"}
{"compound": "COCCN1CCC(N2CCN(C(=O)c3ccsc3)CC2)C1=O (configuration not stated)", "answerLabel": "NO"}
{"compound": "Cc1nc(NC(=O)Cn2nc3c(cc2=O)CCCC3)sc1C", "answerLabel": "NO"}
{"compound": "CC(C)c1nc(-c2ccc(OC3CCN(C(=O)C4(c5ccccc5)CC4)C3)cc2)no1 (configuration not stated)", "answerLabel": "YES"}
{"compound": "O=C(C1CC1)N1CCC(N(Cc2cccnc2)C2CCOCC2)CC1", "answerLabel": "NO"}
{"compound": "Cc1cc(C(=O)N2CCN(C(=O)C3CC3c3cccs3)CC2)c(C)o1 (configuration not stated)", "answerLabel": "NO"}
{"compound": "CCN(CC)CCCNC(=O)C(C)n1c(=O)c(C(F)(F)F)nc2ccccc21 (configuration not stated)", "answerLabel": "NO"}
{"compound": "COc1ccc(N2CCN(C(=O)c3[nH]c(C)c(S(=O)(=O)N4CCC(C)CC4)c3C)CC2)cc1", "answerLabel": "YES"}
{"compound": "Cc1cccc(NC(=O)N2CCC3(CC2)NC(=O)c2ccccc2O3)c1", "answerLabel": "NO"}
{"compound": "CCn1cc(-c2ccncc2)cc1C(=O)NCc1ccccc1Br", "answerLabel": "NO"}
{"compound": "COCCc1noc(-c2nc(-c3ccccc3F)no2)n1", "answerLabel": "YES"}
{"compound": "COC(=O)c1cccc(N2C=C(C#N)S(=O)(=O)c3ccc(F)cc32)c1", "answerLabel": "YES"}
{"compound": "COc1cccc(NC(=O)N2CCCC2c2nc(-c3cccc(C)c3)no2)c1 (configuration not stated)", "answerLabel": "YES"}
{"compound": "O=C(CNC(=O)c1cccc(F)c1)Nc1nc2ccccc2[nH]1", "answerLabel": "NO"}
{"compound": "COCc1nc(C2CCN(S(=O)(=O)c3ccc4c(c3)CCC4)C2)no1 (configuration not stated)", "answerLabel": "YES"}
{"compound": "Cc1cccc(NC(=O)N2[C@H]3CC[C@@H]2c2cnc(-c4ccccc4)nc2C3)c1", "answerLabel": "YES"}
{"compound": "CCc1nc2cc(N3CCC(C(=O)NCc4ccccn4)CC3)cnc2nc1CC", "answerLabel": "NO"}
{"compound": "COc1ccc(NC(=O)Cn2cccc2-c2nnc(-c3ccccc3)o2)cc1OC", "answerLabel": "YES"}
